- Test system: 786-0 renal
- Procedure Details: NCI tumour cell line growth inhibition, 48 h
Could you label it y if measured TGI is 40 µM or higher, and n otherwise?

Reference set (8 entries):
Fc1ccccc1C1CC(c2ccc3ccccc3c2)=Nc2ccccc2S1 (configuration not stated)	y
Cn1c2ccccc2c2c(=O)[nH]c(=O)[nH]c21	y
O=C(Cc1nccc2c1[nH]c1ccccc12)OC1C#CCSCC#C/C=C\1 (configuration not stated)	y
COc1cc(/C=C/C(=O)c2ccc(NC(=O)CN3CCN(c4cc5c(cc4F)c(=O)c(C(=O)O)cn5C4CC4)CC3)cc2)cc(OC)c1OC	n
Cc1cc(C)c2c(n1)S(=O)(=O)N(CCCN1CCN(c3cccc(C(F)(F)F)c3)CC1)c1c-2nn(C)c1C	y
Nc1[nH]c(=S)nc2snnc12	y
Cc1ccc(O)c(-c2cc(-c3cccc(Cl)c3)c(C#N)c(N)n2)c1	y
COc1cc2c3c(n(CCCI)c(=O)c2cc1OC)-c1cc2c(cc1C3=O)OCO2	y

Req: Dear colleague, could you confirm whether CC1(CCCO)CCCCCCCCCC(C)(CCCO)C1=O (configuration not stated) has TGI at or above 40 µM?
Resp: y

Req: Dear colleague, could you confirm whether O=c1[nH]c(=O)n(C2CC(O)C(CO)O2)cc1C1=NC1 (configuration not stated) has TGI at or above 40 µM?
Resp: y

Req: Dear colleague, could you confirm whether Cc1[nH]c(=O)nc(N(CCO)/N=C/c2ccccc2Cl)c1C(=O)Nc1cc(Cl)cc(Cl)c1 has TGI at or above 40 µM?
Resp: y

Req: Dear colleague, could you confirm whether O=C1c2ccccc2C(=O)c2c1ccc(C1C(=O)c3ccccc3C1=O)c2-c1c(C2C(=O)c3ccccc3C2=O)ccc2c1C(=O)c1ccccc1C2=O has TGI at or above 40 µM?
Resp: y

Req: Dear colleague, could you confirm whether Nc1nc(-c2ccccc2)nc(N)c1N=O has TGI at or above 40 µM?
Resp: n

Req: Dear colleague, could you confirm whether CCOC(=O)Cc1nc2sc(S(N)(=O)=O)nn2c1Br has TGI at or above 40 µM?
Resp: y

Req: Dear colleague, could you confirm whether CCN1CCN(c2nc3ccc([N+](=O)[O-])cc3nc2C(=O)c2ccccc2)CC1 has TGI at or above 40 µM?
Resp: n

Req: Dear colleague, could you confirm whether CCCCCCCCCCCC1CCCC(C)N1 (configuration not stated) has TGI at or above 40 µM?
Resp: y

---

- Tested on: UACC-62 melanoma
- Procedure Details: NCI tumour cell line growth inhibition, 48 h
Parameter Measured: TGI

CCOC(=O)C(O)(NC(=O)c1ccccc1F)C(F)(F)F (stereo unspecified)	> 100 µM
O=C(Cn1ccnc1[N+](=O)[O-])c1ccc(F)cc1	> 100 µM
CS(=O)(=O)N(N(CCCl)S(=O)(=O)c1ccccc1)S(C)(=O)=O	> 100 µM
CCOC(=O)c1ccc(C(=O)/C(C(C)=O)=C2\CCCN2C)n1C	> 100 µM
Nc1nc(Cl)cc(NCCC2(CO)CCC2)n1	> 100 µM

From here, focus on the item given below.
Req: Give the measured TGI of O=C1[C@@H]2[C@@H](c3ccccc3)[C@]2(Cl)C(=O)[C@H]2[C@H](c3ccccc3)[C@@]12Cl .
Resp: > 100 µM

---

- Tested on: OVCAR-8 ovarian
- Procedure Details: NCI tumour cell line growth inhibition, 48 h
Here the recorded TGI is given for each entry.
Just the number please, in µM, no unit attached.

COc1cc(Nc2ccnc(NCCCNc3ccnc4cc(Cl)ccc34)n2)cc(OC)c1	5.65

From here, focus on the item given below.
Req: Give the measured TGI of COc1ccc(C(SCCO)(c2ccccc2)c2ccccc2)cc1 .
Resp: 38.5

---

- Tested on: MDA-MB-435
- Procedure Details: NCI tumour cell line growth inhibition, 48 h
Here the recorded TGI is given for each entry.
Just the number please, in µM, no unit attached.

CC(=Nc1ccccc1)C1=C(O)C(Cc2ccccc2)NC1=O (configuration not stated)	0.0528
CC(=O)O[C@@H]1C2=C(C)C=C(O2)[C@H]2O[C@]2(C)C[C@H]2C=C(C(=O)O2)[C@H](OC(C)=O)CC1[C@@]1(C)CO1 (some centres not stated)	71.8
Oc1[nH]c2ccc(Cl)cc2c1/C=c1/ccc2c(c1)N=C(c1ccc(F)cc1)N=2	3.45
COc1ccc(C(SCCO)(c2ccccc2)c2ccccc2)cc1	27.1

Req: Give the measured TGI of Fc1ccc(Nc2nc3nonc3nc2Nc2ccc(F)cc2)cc1 .
Resp: 3.61

---

- System: HCT-15 colon
- Procedure Details: NCI tumour cell line growth inhibition, 48 h
Here the recorded TGI is given for each entry.

Answered cases to consult:
Cc1cccnc1/N=C/c1c(O)n(C)c(=O)[nH]c1=O	> 100 µM
CCC1CN2CCc3c([nH]c4ccccc34)C2C[C@@H]1CC(=O)N(C)C (some centres undefined)	> 100 µM
CC[C@@H](C(=O)[C@@H](C)[C@@H](O)[C@H](C)[C@@H]1O[C@@H]([C@@H](CC)C(=O)N(CC)CC)CC[C@@H]1C)C1O[C@]2(C=CC(=O)[C@]3(CC[C@@](C)([C@H]4CC[C@](O)(CC)[C@H](C)O4)O3)O2)[C@H](C)C[C@@H]1C (some centres undefined)	4.51 µM

From here, focus on the item given below.
Req: Lab request: please report TGI under test system HCT-15 colon for CC(=C(C(N)=O)C(N)=O)C1C=C(c2cccs2)CC(c2ccc(Cl)cc2)=C1O (centres undefined)
Resp: > 100 µM

---

- Tested on: UACC-62 melanoma
- Procedure Details: NCI tumour cell line growth inhibition, 48 h
Here the recorded TGI is given for each entry.

Answered cases to consult:
Fc1ccccc1C1CC(c2ccc3ccccc3c2)=Nc2ccccc2S1 (configuration not stated)	> 100 µM
COc1cc(C2C(C(=O)O)=C(COC(C)=O)Oc3cc4c(cc32)OCO4)cc(OC)c1OC (configuration not stated)	> 100 µM
COC(=O)C1CCC(=O)N1C(c1ccc(OC)cc1)c1ccc(OC)cc1 (configuration not stated)	> 100 µM
CC(C)C1=CCC2C(=C1)CCC1C(C)(C(=O)O)CCCC21C (configuration not stated) (tested in a mixture with another compound)	> 100 µM
CC(=Nc1ccccc1)C1=C(O)C(Cc2ccccc2)NC1=O (configuration not stated)	> 100 µM
CC1C2CC(C(S(=O)(=O)N3CCOCC3)/C2=N\O)C1(C)C (configuration not stated)	> 100 µM
N#CCCN(CCC#N)c1ccc(/C=C2\N=C(c3ccccc3)N(NC(N)=S)C2=O)cc1	> 100 µM
CCN(C(=O)c1cc(F)ccc1Oc1cncnc1N1CC2(CCN(CC3CCC(NS(=O)(=O)CC)CC3)CC2)C1)C(C)C (configuration not stated)	> 100 µM

Req: Give the measured TGI of CC1C[C@@H]2C(=O)NC(=O)[C@@H]2c2c1c1ccccc1n2C (some centres not stated) .
Resp: > 100 µM

Req: Give the measured TGI of COc1cc(COC(=O)N(CC(=O)O)c2ccccc2)c([N+](=O)[O-])cc1OC .
Resp: > 100 µM

Req: Give the measured TGI of N#Cc1c(N)sc2c1-c1ccccc1OC2 .
Resp: > 100 µM

Req: Give the measured TGI of C/C(=C/C(=O)Nn1c(Cc2ccccc2)n[nH]c1=O)C(=O)O .
Resp: > 100 µM

---

- Tested on: KM12 colon
- Procedure Details: NCI tumour cell line growth inhibition, 48 h
Parameter Measured: TGI

COc1ccc(/C=C2\N=C(c3ccccc3)N(N=C3NC(=O)CC(=O)N3)C2=O)cc1	> 100 µM
CC(C)C(C)C(C)(C)P(C)(C)=O (stereo unspecified)	> 100 µM
CC1(Cl)CCC2(CC(Br)=CC3OC32C)CC1Br (stereo unspecified)	> 100 µM
CSc1ccc(NC(=S)NN(C)C)cc1	> 10 µM
COc1cc(COC(=O)N(CC(=O)O)c2ccccc2)c([N+](=O)[O-])cc1OC	> 100 µM

Req: Give the measured TGI of O=C(Nc1nc2ncn(CCNCc3ccccc3)c2c(=O)[nH]1)c1ccccc1 .
Resp: > 100 µM

---

- System: IGROV1 ovarian
- Procedure Details: NCI tumour cell line growth inhibition, 48 h
Here the recorded TGI is given for each entry.

Answered cases to consult:
Cc1c2cnccc2c(C)c2c1c1ccccc1n2CCCCCCNCc1ccccc1	3.85 µM
Cc1cccnc1/N=C/c1c(O)n(C)c(=O)[nH]c1=O	> 100 µM
CCCCCCOP(=O)(OCCCCCC)C(NC(=O)OCC)(C(F)(F)F)C(F)(F)F	> 100 µM

Req: Give the measured TGI of COc1ccc(/C=C2\N=C(c3ccccc3)N(N=C3NC(=O)CC(=O)N3)C2=O)cc1 .
Resp: > 100 µM

Req: Give the measured TGI of O=[N+]([O-])c1c(Br)sc(Br)c1[N+](=O)[O-] .
Resp: 5.38 µM
